- MEASURED TARGET: α4β7 integrin interaction with MadCAM-1 (RPMI8866 cells) (Homo sapiens, UniProt P13612+P26010)
- Construct: α4β7 integrin expressing cells; endogenous in cells
- Sequence (P13612 34-1032): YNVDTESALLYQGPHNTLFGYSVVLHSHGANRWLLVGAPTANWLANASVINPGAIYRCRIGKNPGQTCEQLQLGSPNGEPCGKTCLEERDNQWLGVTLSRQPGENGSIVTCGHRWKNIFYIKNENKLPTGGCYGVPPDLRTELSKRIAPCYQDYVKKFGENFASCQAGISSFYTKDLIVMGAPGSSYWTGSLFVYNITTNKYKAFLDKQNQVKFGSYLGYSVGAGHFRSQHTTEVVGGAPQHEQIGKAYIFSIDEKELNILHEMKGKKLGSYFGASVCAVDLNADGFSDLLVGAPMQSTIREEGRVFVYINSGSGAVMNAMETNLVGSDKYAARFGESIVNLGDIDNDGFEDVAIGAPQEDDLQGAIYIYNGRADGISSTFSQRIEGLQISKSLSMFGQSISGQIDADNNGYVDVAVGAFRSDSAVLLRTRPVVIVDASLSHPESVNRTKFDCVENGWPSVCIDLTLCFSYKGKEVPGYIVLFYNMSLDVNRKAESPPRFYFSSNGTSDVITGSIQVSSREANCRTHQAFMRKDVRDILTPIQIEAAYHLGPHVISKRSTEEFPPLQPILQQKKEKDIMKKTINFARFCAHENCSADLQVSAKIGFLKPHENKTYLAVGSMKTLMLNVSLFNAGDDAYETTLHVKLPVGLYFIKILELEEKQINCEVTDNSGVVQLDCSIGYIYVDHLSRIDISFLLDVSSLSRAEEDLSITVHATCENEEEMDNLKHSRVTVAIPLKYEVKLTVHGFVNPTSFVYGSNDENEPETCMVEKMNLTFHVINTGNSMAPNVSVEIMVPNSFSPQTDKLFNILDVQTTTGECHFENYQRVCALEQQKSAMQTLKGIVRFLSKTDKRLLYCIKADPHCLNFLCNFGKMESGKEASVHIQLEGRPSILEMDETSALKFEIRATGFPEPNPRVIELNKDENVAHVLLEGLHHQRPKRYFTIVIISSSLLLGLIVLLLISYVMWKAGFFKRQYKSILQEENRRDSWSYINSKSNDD
- Sequence (P26010 20-798): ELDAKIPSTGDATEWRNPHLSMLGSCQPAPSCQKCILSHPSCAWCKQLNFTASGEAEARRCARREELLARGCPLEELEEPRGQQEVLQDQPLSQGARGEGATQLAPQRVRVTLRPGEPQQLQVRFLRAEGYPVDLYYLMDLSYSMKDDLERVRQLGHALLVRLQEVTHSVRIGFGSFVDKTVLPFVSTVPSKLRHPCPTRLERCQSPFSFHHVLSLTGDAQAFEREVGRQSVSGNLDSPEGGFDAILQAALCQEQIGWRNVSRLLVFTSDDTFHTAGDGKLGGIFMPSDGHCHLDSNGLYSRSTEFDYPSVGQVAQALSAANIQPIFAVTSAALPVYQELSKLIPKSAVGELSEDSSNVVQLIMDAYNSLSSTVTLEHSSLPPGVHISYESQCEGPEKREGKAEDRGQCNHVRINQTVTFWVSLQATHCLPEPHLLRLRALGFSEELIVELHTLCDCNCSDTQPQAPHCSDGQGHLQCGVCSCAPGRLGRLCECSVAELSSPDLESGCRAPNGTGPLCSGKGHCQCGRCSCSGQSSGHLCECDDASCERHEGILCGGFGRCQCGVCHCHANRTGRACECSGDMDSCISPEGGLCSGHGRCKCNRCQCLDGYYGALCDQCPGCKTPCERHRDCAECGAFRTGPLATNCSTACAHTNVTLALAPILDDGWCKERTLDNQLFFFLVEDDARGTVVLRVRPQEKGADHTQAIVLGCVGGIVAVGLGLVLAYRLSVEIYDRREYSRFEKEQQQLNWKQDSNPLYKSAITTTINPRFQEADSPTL
- PROTOCOL DESCRIPTION: α4β7 Integrin Cell Capture Assay
- CONDITION LABEL: capture of α4β7 integrin expressing RPMI8866 cells on recombinant MadCAM-1 extracellular domain-coated plate; 0.5 mM MnCl2
pEC50: −log10 of the molar value.
METRIC NAME: pEC50

INSERT INTO results (structure, metric_name, value_observed) VALUES
  ('Cc1cn(C)c(=O)c(-c2ccc(C[C@H](NC(=O)c3c(F)cc(N4CCOC[C@@H]4C(F)(F)F)cc3F)C(=O)O)c3c2OCCC3)n1', 'pEC50', 9.02),
  ('Cc1cc(N2CCOC[C@@H]2C(F)(F)F)cc(F)c1C(=O)N[C@@H](Cc1ccc(-c2c(C)c(C(F)(F)F)cn(C)c2=O)c2c1CCC2)C(=O)O', 'pEC50', 9.58),
  ('Cc1cc(N2CCOC[C@@H]2C(F)(F)F)cc(F)c1C(=O)N[C@@H](Cc1ccc(-c2c(C(F)(F)F)cc(C)n(C)c2=O)c2c1CCCO2)C(=O)O', 'pEC50', 10.03);

1 = O=C(N[C@@H](Cc1ccc(-c2c(Cl)cc(F)cc2Cl)c2c1OCCCO2)C(=O)O)c1c(F)cccc1F
2 = Cn1ncc(C(F)(F)F)c(-c2ccc(C[C@H](NC(=O)c3c(F)cc(N4CCOC[C@@H]4C(F)(F)F)cc3F)C(=O)O)c3c2OCCC3)c1=O
3 = Cc1nc(-c2ccc(C[C@H](NC(=O)c3c(F)cc(N4CCC(F)(F)C[C@@H]4C(F)(F)F)cc3F)C(=O)O)c3c2OCCC3)c(=O)n(C)c1C
Order by pEC50, ascending. Reply with the labels, ordered as the question asks.
1, 3, 2
